biological target: mouse TRPM3α2 (mTRPM3) ion channel (Mus musculus, UniProt J9SQF3); experiment: TRPM3 ion channel driven Ca2+ uptake, Fluo-4 AM assay, mTRPM3alpha2 overexpressing flip-in HEK293 cells stimulated with pregnenolone sulfate (50 μM); settings: mTRPM3 overexpressing HEK293 cells stimulated with pregnenolone sulfate (50 μM), activity ranges A, B, C
Sequence (J9SQF3 1-1709 isoform J9SQF3-12): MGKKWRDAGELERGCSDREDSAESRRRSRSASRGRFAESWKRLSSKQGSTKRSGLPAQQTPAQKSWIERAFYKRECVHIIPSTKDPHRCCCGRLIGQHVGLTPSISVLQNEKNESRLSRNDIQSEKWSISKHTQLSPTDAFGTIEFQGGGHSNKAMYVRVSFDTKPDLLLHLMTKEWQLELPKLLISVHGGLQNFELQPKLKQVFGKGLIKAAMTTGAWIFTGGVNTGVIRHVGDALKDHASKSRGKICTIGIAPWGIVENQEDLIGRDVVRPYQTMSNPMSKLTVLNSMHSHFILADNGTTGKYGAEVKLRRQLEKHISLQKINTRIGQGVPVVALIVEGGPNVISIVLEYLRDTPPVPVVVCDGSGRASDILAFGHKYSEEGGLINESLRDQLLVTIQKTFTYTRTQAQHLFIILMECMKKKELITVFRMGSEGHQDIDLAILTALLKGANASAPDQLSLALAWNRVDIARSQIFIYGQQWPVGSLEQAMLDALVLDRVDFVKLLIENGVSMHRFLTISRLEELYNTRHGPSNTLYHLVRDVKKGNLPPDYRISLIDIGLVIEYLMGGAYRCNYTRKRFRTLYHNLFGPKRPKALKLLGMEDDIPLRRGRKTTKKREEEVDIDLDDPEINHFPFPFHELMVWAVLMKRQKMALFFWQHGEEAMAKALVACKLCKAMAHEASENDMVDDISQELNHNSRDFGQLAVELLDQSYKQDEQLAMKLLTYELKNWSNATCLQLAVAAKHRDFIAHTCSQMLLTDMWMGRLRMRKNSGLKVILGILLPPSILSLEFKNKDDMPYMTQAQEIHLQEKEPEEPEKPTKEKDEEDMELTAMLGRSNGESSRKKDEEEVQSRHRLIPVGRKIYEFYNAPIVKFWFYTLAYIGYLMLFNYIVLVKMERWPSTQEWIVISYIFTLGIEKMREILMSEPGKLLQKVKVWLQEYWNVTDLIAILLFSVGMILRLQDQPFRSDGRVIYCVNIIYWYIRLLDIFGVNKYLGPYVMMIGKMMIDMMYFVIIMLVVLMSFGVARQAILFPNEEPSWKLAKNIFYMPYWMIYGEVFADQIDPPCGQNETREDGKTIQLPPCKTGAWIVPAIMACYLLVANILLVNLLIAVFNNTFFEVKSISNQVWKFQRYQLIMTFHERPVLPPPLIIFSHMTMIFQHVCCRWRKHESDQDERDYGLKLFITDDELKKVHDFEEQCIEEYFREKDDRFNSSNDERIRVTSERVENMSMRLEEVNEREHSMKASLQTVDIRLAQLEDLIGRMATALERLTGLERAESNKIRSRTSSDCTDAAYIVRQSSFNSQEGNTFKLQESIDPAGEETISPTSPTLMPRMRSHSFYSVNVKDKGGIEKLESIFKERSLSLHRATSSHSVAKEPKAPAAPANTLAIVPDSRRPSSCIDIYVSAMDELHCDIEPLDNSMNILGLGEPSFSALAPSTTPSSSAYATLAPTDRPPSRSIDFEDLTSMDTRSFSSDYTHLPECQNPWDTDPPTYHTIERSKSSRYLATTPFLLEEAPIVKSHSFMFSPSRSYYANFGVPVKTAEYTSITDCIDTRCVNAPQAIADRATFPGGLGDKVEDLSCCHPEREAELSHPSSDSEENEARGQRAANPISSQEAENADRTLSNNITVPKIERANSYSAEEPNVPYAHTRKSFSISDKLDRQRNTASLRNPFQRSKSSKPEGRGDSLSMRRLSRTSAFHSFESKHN
property: IC50

Input: Which value of IC50 has been reported for Cn1nccc1COc1ccc2nn(C)c(C(=O)NC3(CO)CCOCC3)c2c1 [Cpd 058] in the records?
Output: > 20 µM

Input: Ok, now Cn1nc2ccc(OCc3cccnc3C(F)(F)F)cc2c1C(=O)N[C@@H]1COC[C@@H]1O (single isomer, unassigned) [Cpd 010 - Dia2]
Output: 1 to 20 µM

Input: Ok, now Cn1nc2ccc(OCc3ccccn3)cc2c1C(=O)NC1(CO)COC(C)(C)OC1 [Cpd 219]
Output: > 20 µM

Input: Ok, now Cn1nccc1COc1ccc2nn(C)c(C(=O)NC3(C(N)=O)COC3)c2c1 [Cpd 030]
Output: > 20 µM

Input: Ok, now Cn1nc2ccc(OCC(F)F)cc2c1C(=O)NC(C)(CO)C(N)=O (single isomer, unassigned) [Cpd 187 - En2]
Output: 1 to 20 µM

Input: Ok, now Cn1nc2ccc(OCc3ccccn3)cc2c1C(=O)NC(CO)c1ccccn1 (single isomer, unassigned) [Cpd 221 - En2]
Output: 1 to 20 µM

Input: Ok, now Cn1nc2ccc(OCc3ccccn3)cc2c1C(=O)NCC(O)CC(F)(F)F (single isomer, unassigned) [Cpd 245 - En1]
Output: > 20 µM

Input: Ok, now Cn1nc2ccc(OCc3ccccn3)cc2c1C(=O)NCc1cccc(OC(F)F)c1 [Cpd 210]
Output: > 20 µM

---

biological target: mouse TRPM3α2 (mTRPM3) ion channel (Mus musculus); test: TRPM3 ion channel driven Ca2+ uptake, Fluo-4 AM assay, mTRPM3alpha2 overexpressing flip-in HEK293 cells stimulated with pregnenolone sulfate (50 μM); conditions: mTRPM3 overexpressing HEK293 cells stimulated with pregnenolone sulfate (50 μM), activity ranges A, B, C
pIC50: −log10 of the molar value.
property: pIC50

Input: Which value of pIC50 has been reported for Cn1nc2ccc(OCc3ccccc3)cc2c1C(=O)O in the records?
Output: 4.70 to 6.00

Input: Ok, now Cn1nc2ccc(OCc3ccccn3)cc2c1C(=O)NC1(CC(F)F)CCCNC1 (single isomer, unassigned) [Cpd 248 - En2]
Output: 4.70 to 6.00

Input: Ok, now Cn1nc2ccc(OCc3ccccn3)cc2c1C(=O)NC1(CO)CC1C(F)F (single isomer, unassigned) [Cpd 237 - En1]
Output: 4.70 to 6.00

Input: Ok, now Cn1nc2ccc(OCc3ccccc3F)cc2c1C(=O)NC1(CO)CC1
Output: 4.70 to 6.00

Input: Ok, now Cn1nc2ccc(OCc3ccccn3)cc2c1C(=O)NCC(F)(F)F
Output: < 4.70

Input: Ok, now Cn1nc2ccc(OCc3ccccc3C(F)F)cc2c1C(=O)NC1(C(N)=O)CCOC1 (single isomer, unassigned) [Cpd 175 - En2]
Output: 4.70 to 6.00

Input: Ok, now Cc1ncsc1COc1ccc2nn(C)c(C(=O)NC(C)(CO)CO)c2c1
Output: > 6.00

Input: Ok, now Cn1nc2ccc(OCc3ccccn3)cc2c1C(=O)NC(CO)c1ccccn1 (single isomer, unassigned) [Cpd 221 - En1]
Output: 4.70 to 6.00
